# TEST PROTOCOL: gradient 5% acetonitrile 3 min, to 50% in 2 min, to 85% in 15 min, held 3 min, 100 µL/min
# SETUP CONDITIONS: column: Zorbax Extend-C18 2.1 x 50 mm; eluents: water / acetonitrile, 0.1% formic acid
MEASURED QUANTITY: RP-LC retention time (s)

• COc1ccc(C(=O)Nc2ccc3nc(N4CC(C)CC(C)C4)cc(C(=O)O)c3c2)cc1 (stereo not drawn) = 680
• Cc1nc(-c2noc(-c3ccccc3)n2)cn1CC(=O)Nc1ccc2c(c1)OCO2 = 803
• COc1ccc(Cl)cc1NC(=O)N1CCN(CCn2c(C(F)(F)F)nc3cccnc32)CC1 = 696
